Reported melting point values for a set of molecules

Example cases with answers are listed next.
>>> result("Cn1c(C=O)nc2cc(C(F)(F)F)ccc21")
"111 to 113 °C"
>>> result("COC(=O)c1c(-c2cnn(C)c2)csc1N")
"128 to 130 °C"
>>> result("CN(C)S(=O)(=O)c1ccc(F)c(C(=O)O)c1")
"163 to 165 °C"
>>> result("COc1ccc(C(=O)O)cc1OCc1ccncc1")
"201 to 203 °C"
>>> result("COC(=O)c1c(O)c(Cl)cc(Cl)c1Cl")
"113 to 115 °C"

Enquiry: Name the reported melting point value associated with the molecule Clc1cnc(N2CCNCC2)c(Cl)c1
Return: 59 to 61 °C

Enquiry: Request: O=C(O)c1ccc(N2CCCc3ccccc32)cc1
Return: 214 to 216 °C
